Consider the following compounds and their measured melting point readings.

{"compound": "O=C(c1ccc[nH]1)c1cc(F)cc(F)c1O [Compound 9]", "melting point": "161.7 to 162.5 °C"}
{"compound": "COc1c(F)cc(F)cc1C(=O)c1[nH]c(Br)c(Br)c1Br [Compound 10]", "melting point": "178.9 to 179.7 °C"}
{"compound": "O=C(c1cc(F)cc(F)c1O)c1[nH]c(Br)c(Br)c1Br [Compound 3]", "melting point": "151.8 to 152.7 °C"}
{"compound": "O=C(c1cc(Cl)cc(Cl)c1O)c1[nH]c(F)c(Br)c1Br [Compound 18]", "melting point": "171.9 to 172.7 °C"}
{"compound": "COc1c(F)cc(F)cc1C(=O)c1ccc[nH]1 [Compound 8]", "melting point": "85.7 to 87.1 °C"}
{"compound": "COc1c(F)cc(F)cc1C(=O)c1c(Br)c(Br)c(Br)n1C [Compound 11]", "melting point": "107.4 to 108.1 °C"}
{"compound": "Cn1c(Br)c(Br)c(Br)c1C(=O)c1cc(F)cc(F)c1O [Compound 12]", "melting point": "156.2 to 157.2 °C"}
